System: OVCAR-3
Assay: NCI tumour cell line growth inhibition, 48 h
The source made the active and inactive calls. No stated cut-off is given here; in the data, active = GI50 up to about 1.1 µM and inactive = higher.
Collected GI50 values appear next to each entry.

[N-]=[N+]=NCC1OC(n2cnc3c(N)ncnc32)C2OC12 (configuration not stated)
> 100 µM (inactive)

Task: // Input: O=C(NN1C(=O)C(Cl)C1c1ccccc1O)c1ccccc1O (configuration not stated) . Output its GI50 only.
Result: 3.13 µM (inactive)

Task: For Cc1cc(=O)oc2c(CN3CCCCC3)c(O)ccc12 , write its GI50.
Result: > 100 µM (inactive)

Task: Supply GI50 value. Item: COC(=O)C(CC(=O)Nc1ccc(C)cc1)C(=O)C(=O)Nc1ccccc1C(C)C (configuration not stated)
Result: > 100 µM (inactive)

Task: Indicate its recorded GI50; the molecule in question is O=c1[nH]nc(-c2ccccc2)n1-n1cccc1
Result: > 100 µM (inactive)

---

Test system: CAKI-1
Experiment: NCI tumour cell line growth inhibition, 48 h
Active and inactive are the calls of the source. Cut-off read from the data, not from the text of the source: active = GI50 up to about 1.1 µM and inactive = higher.
GI50 values for the compounds below.

Solved entries:
CCC(C)C(N)C(=O)NC(CC(N)=O)C(=O)NC(CC(C)C)C(=O)NC(CCCCN)C(=O)NC(C)C(=O)NC(CC(C)C)C(=O)NC(C)C(=O)NC(C)C(=O)NC(CC(C)C)C(=O)NC(C)C(=O)NC(CCCCN)C(=O)NC(CCCCN)C(=O)NC(C(=O)NC(CC(C)C)C(N)=O)C(C)CC (centres undefined)
8.3 µM (inactive)
CN(C)c1ncnc2c1ncn2C1C=CC(COS(N)(=O)=O)C1 (centres undefined)
> 100 µM (inactive)
CCC(C)(C)NS(=O)(=O)c1ccccc1
> 100 µM (inactive)

Task: Please report the measured GI50 for COC(=O)C1CC(C=[N+](C)C)=C(SC)N1C(=O)OCc1ccccc1 (centres undefined) tested on CAKI-1.
Result: > 100 µM (inactive)

---

Test system: MOLT-4
Test: NCI tumour cell line growth inhibition, 48 h
Activity calls are given as the source filed them. No stated cut-off is given here; in the data, active = GI50 up to about 1.1 µM and inactive = higher.
RESULT_TYPE: GI50

Example cases with answers are listed next.
COc1cc(/C=C2\N=C(c3ccccc3)N(c3ccc4c(c3)Sc3cc(N5C(=O)/C(=C/c6cc(OC)c(OC)c(OC)c6)N=C5c5ccccc5)ccc3N4)C2=O)cc(OC)c1OC
37.2 µM (inactive)
COC(=O)c1ccccc1/C=C1/Cc2ccccc2C1=O
24.4 µM (inactive)
c1nc(NCCc2c[nH]cn2)c2nc[nH]c2n1
> 100 µM (inactive)
CC(=O)OC(C#N)CC(C)(C)/[N+]([O-])=[N+](\[O-])C(C)(C)CC(C#N)OC(C)=O (stereo not given)
3.24 µM (inactive)
CC(C)CC(NC(=O)c1cccc(O)c1O)C(=O)NCc1cc(CNC(=O)C(CC(C)C)NC(=O)c2cccc(O)c2O)cc(CNC(=O)C(CC(C)C)NC(=O)c2cccc(O)c2O)c1 (stereo not given)
11.4 µM (inactive)
O=C(O)CCCc1ccc2c(c1)CC1(C2)Cc2cc3c(cc2C1)CCCC3
1.52 µM (inactive)
[N-]=[N+]=NCC1OC(n2cnc3c(N)ncnc32)C2OC12 (stereo not given)
> 100 µM (inactive)
O=C(O)CCC1CCc2cccc(O)c2C1=O (stereo not given)
> 100 µM (inactive)

Task: Using the record for CC(C)CCC[C@@H](C)C1CCC2[C@@H]3CC=C4C[C@@H](C(=O)NCCN(C)C)CC[C@]4(C)C3CC[C@@]21C (stereo not given in full) , state its measured GI50.
Result: 31.1 µM (inactive)

Task: State its GI50 for this compound: CCOC(=O)C(=O)Nc1cccc(Cl)c1C
Result: > 100 µM (inactive)

Task: Please report GI50 for the following compound: C=CC(C)(C)n1cc(C2=C3OC(=O)C(c4cn(C(C)(C)C=C)c5ccccc45)=C3OC2=O)c2ccccc21
Result: > 100 µM (inactive)

Task: Using known records, supply GI50 for NC(=O)c1c[se]c(C2OC(COP(=O)(O)CP(=O)(O)OCC3OC(n4cnc5c(N)ncnc54)C(O)C3O)C(O)C2O)n1 (stereo not given)
Result: 35.3 µM (inactive)

Task: Output measured GI50 for this item: Nc1nc2cc(CNc3ccc(C(=O)NC(CCC(=O)O)C(=O)O)cc3)ccc2nc1-c1ccccc1 (stereo not given)
Result: > 10 µM (inactive)

---

Tested on: UO-31
Test: NCI tumour cell line growth inhibition, 48 h
The source made the active and inactive calls. Rule as the data show it: active = GI50 up to about 1.1 µM and inactive = higher.
RESULT_TYPE: GI50

Example cases with answers are listed next.
CCC1c2[nH]c3ccccc3c2C[C@H]2C(=O)NC(Cc3c[nH]c4ccccc34)C(=O)N12 (stereo not given in full)
27.7 µM (inactive)
Cn1c(=O)nc2n(-c3ccc(Cl)cc3)c3ccc(Cl)cc3nc-2c1=O
18 µM (inactive)
Cc1ccc(S(=O)(=O)OC[C@@H]2CO2)cc1
> 100 µM (inactive)
O=C(c1ccccc1)c1nc2ccc(Cl)cc2c2c1CCCO2
> 100 µM (inactive)
N#Cc1c(Cl)c(C=O)c(=O)n2c1[nH]c1ccccc12
46.2 µM (inactive)
Cc1ccc([N+](=O)[O-])c2c(NCCNC(=O)c3cc(C(=O)NCCNc4ccnc5c(C)ccc([N+](=O)[O-])c45)n(C)n3)ccnc12
> 100 µM (inactive)
COc1ccc2cc(C(=O)O)ccc2c1OC
> 100 µM (inactive)
COc1cc2c(cc1C[N+](C)(C)CSc1ccccc1)-c1ccccc1CC2
15.2 µM (inactive)
CC(=O)NNc1nc(C)c(C(=O)NNC(=O)C(=O)Nc2ccccc2C#N)s1
> 100 µM (inactive)

We now examine a further compound.
Task: Under UO-31, report GI50 for C=C(C)[C@@H]1CC[C@@H]2C(=CC[C@]3(C)C([C@H](C)CC/C=C(/C)C(=O)O)CC[C@@]23C)[C@@]1(C)CCC(=O)O (stereo not given in full)
Result: 16.7 µM (inactive)

---

Tested on: Malme-3M
Assay: NCI tumour cell line growth inhibition, 48 h
Activity calls are given as the source filed them. Cut-off read from the data, not from the text of the source: active = GI50 up to about 1.1 µM and inactive = higher.
Please reply with one of these outcomes: 1.0 = active, 0.0 = inactive

Solved cases below.
Cc1cnc(Cl)nc1C(C#N)c1nc2ccccc2s1 (stereo unspecified)
0.0
CSC1(C)CC2C(CC1N1CCOCC1)C2(C)C (stereo unspecified)
0.0
CCCCNC(=S)Nc1nc(C(=O)NNC(=O)c2ccccc2)cs1
0.0
COc1cccc(CCNc2c(C#N)c3nc4ccccc4n3c3ccccc23)c1
1.0
CN(C)C(=S)/N=c1\ss/c(=N/c2ccccc2)n1C
0.0

// switching to the query compound
Task: Just curious, what result did CS(=O)(=O)Nc1ccc(Nc2c3ccccc3nc3ccccc23)cc1 get here?
Result: 0.0

---

Tested on: Malme-3M
Assay: NCI tumour cell line growth inhibition, 48 h
Calls of active or inactive are those of the source. Cut-off read from the data, not from the text of the source: active = GI50 up to about 1.1 µM and inactive = higher.
RESULT_TYPE: GI50

// known answers, use as guide
c1ccc2c3c(ccc2c1)-c1[nH]ncc1CCO3
45.7 µM (inactive)
CCN(CC)CCC(=O)c1ccc(Oc2ccccc2)cc1
15.1 µM (inactive)
CC(=O)Nc1ccc(/N=C2\C(c3ccccc3)=C(SC3=C(c4ccccc4)/C(=N\c4ccc(NC(C)=O)cc4)c4ccccc43)c3ccccc32)cc1
27.2 µM (inactive)
O=C1C(Cl)=C(Sc2nnc3c4ccccc4c4ccccc4c3n2)C(=O)c2ccccc21
3.26 µM (inactive)

Now let's try a different one.
Task: Fill in reported GI50 for this entry: NC(=O)CCC(NCc1c2ccccc2[n+]([O-])c2ccccc12)C(=O)O (centres undefined)
Result: 81.8 µM (inactive)

---

Tested on: SF-268
Test: NCI tumour cell line growth inhibition, 48 h
Activity calls are given as the source filed them. Rule as the data show it: active = GI50 up to about 1.1 µM and inactive = higher.
RESULT_TYPE: GI50

C1CCNCC1.O=C1NC(=S)N/C1=C/c1ccccc1O
> 100 µM (inactive)
C=CCNC1=C2C[C@@H](C)C[C@@H](OC)[C@@H](OC(=O)CCCN)[C@H](C)/C=C(\C)[C@@H](OC(N)=O)[C@H](OC)/C=C\C=C(/C)C(=O)NC(=CC1=O)C2=O
13.2 µM (inactive)

Task: Enter measured GI50, system SF-268, for the compound shown: Cc1ccc([S+]([O-])CC(CF)OCn2cc(C)c(=O)[nH]c2=O)cc1 (centres undefined)
Result: > 100 µM (inactive)

Task: Quote SF-268 GI50 for entry Cc1ccc(NC(=O)CC/C(CC(=O)c2ccc(Cl)cc2)=N\NC(=O)C(=O)NN)cc1C .
Result: > 100 µM (inactive)

Task: Param request: GI50 | system SF-268 | item CCCCCCCC(CC(=O)NC(CO)C(=O)NC(CO)CC(C)C)OC(=O)CC(CCCCCCC)OC(=O)CC(CCCCCCC)OC1OC(C)C(O)C(OC2OC(C)C(O)C(O)C2O)C1O (centres undefined)
Result: 8.41 µM (inactive)

Task: Enter measured GI50, system SF-268, for the compound shown: COc1ccc(C[C@]23CCC(=O)N2CCc2cc(OC)c(O)cc23)cc1O
Result: > 100 µM (inactive)

Task: Identify measured GI50 obtained with SF-268 for CCCCNC(=S)Nc1nc(C(=O)NNC(=O)c2ccccc2)cs1 .
Result: 25.9 µM (inactive)
